- System: Tetranychus urticae
- measurement_notes: Effectiveness on Tetranychus urticae (rating of effects on kidney bean seedlings)
- Type: in vivo
- condition_summary: 500 ppm, 20 ml; 7th day after treatment; rating based on percent decrease
metric: Rating of effect Day-7

Input: // Input: CCC(C)SP(=O)(OC)Oc1ccc(Oc2ccc(Cl)nn2)c(C)c1 (centres unmarked) [compound 14] . Output its Rating of effect Day-7 only.
Output: 3 (≥90)

Input: // Input: COP(=S)(OC)Oc1ccc([N+](=O)[O-])c(C)c1 [Fenitrothion, reference compound] . Output its Rating of effect Day-7 only.
Output: 0 (≤20)

Input: // Input: CCCSP(=O)(OCC)Oc1ccccc1Sc1ccc(Br)nn1 (centres unmarked) [compound 26] . Output its Rating of effect Day-7 only.
Output: 3 (≥90)

Input: // Input: CCCSP(=O)(OCC)Oc1ccc(Oc2ccc(Cl)nn2)c(C)c1 (centres unmarked) [compound 15] . Output its Rating of effect Day-7 only.
Output: 3 (≥90)

Input: // Input: CCCSP(=O)(OCC)Oc1cccc(Sc2ccc(Cl)nn2)c1 (centres unmarked) [compound 19] . Output its Rating of effect Day-7 only.
Output: 3 (≥90)

* * *

- measurement_notes: Toxicological test: oral acute toxicity in mice
- Design: species or system mice (ddY-SLC strained male)
- condition_summary: mouse, in vivo, five-week aged ddY-SLC male mice
metric: LD50

Input: // Input: CCCSP(=S)(OCC)Oc1ccc(Sc2ccc(Cl)nn2)cc1 (centres unmarked) . Output its LD50 only.
Output: > 300 mg/kg

Input: // Input: CCCSP(=O)(OCC)Oc1ccccc1Sc1ccc(Br)nn1 (centres unmarked) . Output its LD50 only.
Output: ~300 mg/kg

Input: // Input: CCCSP(=O)(OCC)Oc1ccccc1Oc1ccc(Br)nn1 (centres unmarked) . Output its LD50 only.
Output: ~300 mg/kg

Input: // Input: CCCSP(=S)(OCC)Oc1ccc(Oc2ccc(Cl)nn2)c(C)c1 (centres unmarked) . Output its LD50 only.
Output: > 300 mg/kg

Input: // Input: CCCSP(=S)(OCC)Oc1ccccc1Oc1ccc(N)nn1 (centres unmarked) . Output its LD50 only.
Output: > 300 mg/kg
